# assay: label from the status in PepcDB records

sequence-record | protein production
MNVYFLGGGNMAAAVAGGLVKQGGYRIYIANRGAEKRERLEKELGVETSATLPELHSDDVLILAVKPQDMEAACKNIRTNGALVLSVAAGLSVGTLSRYLGGTRRIVRVMPNTPGKIGLGVSGMYAEAEVSETDRRIADRIMKSVGLTVWLDDEEKMHGITGISGSGPAYVFYLLDALQNAAIRQGFDMAEARALSLATFKGAVALAEQTGEDFEKLQKNVTSKGGTTHEAVEAFRRHRVAEAISEGVCACVRRSQEMERQYQ | not failed
MLFESINTGCLDGNDTPWMPFAPYSNDVMVKYFKIDPVRGETITLLKAPAGMEMPRHHHTGTVIVYTVQGSWRYKEHDWVAHAGSVVYETASTRHTPQSAYAEGPDIITFNIVAGELLYLDDKDNIIAVENWKTSMDRYLNYCKAHGIRPKDLSTFEG | not failed
MKFISTSLLLMLLVSSLSPVQGVLEVYYTSLRCRCVQESSVFIPRRFIDRIQILPRGNGCPRKEIIVWKKNKSIVCVDPQAEWIQRMMEVLRKRSSSTLPVPVFKRKIP | failed
MKRMHNPAHPGEVLREYLGELTVTNAAAKLGVSRVALSRILNGTNGISADMALRLEDALGTSAEMWAAMQFKYDLWVASQQPRPKITRLHV | failed
LGIAINEMIRMLRAARDEDDRRNWLKDGYGQVSAALTGDLTTEQLADAAIGLIGRYLDAGRGVFYLYRDAEQRLDLIGSYMYTERNNLGASFALGEGAVGQVARERKPIILEVSGDDAAPIVTGTMLALPRYTYTYPLLHEKELVGVIELSSFDHFDERKLEFLANVGGMLASFL | failed
MSFSFLFILTAGMVAAFNPCGIALLPSYISYLIGGETKDHSFRYAIFKGLGLGGAMTTGFLTIFVLAGLLIGGLGSALTGIFPILSLVMGILIALLGLGMLFGKHLPIKIGSFQVKPGKWSIYFYGIAYAVTSLGCTLPAFMLVVSASLNDNSVTAVIIKFIIYSLGMGIVVTAITMVSLISRQLVQKFLHNYMGSIQKIAAVVIFLSGLYMAYYWYFGSGGICTF | failed
MTNFTQSINFPGSLPLTRNLLAAACFFAMTQASAAGFISDVKQISDQEVRSGEGYYRADGKWLVYQAEVAGENPFYQIYLKNIASGEVQQVSPGIGKTTCSWVHPIQEKVLFSSTHEDPEAKAKMTTEIEQRKSGQRRSYAWDYDEFYDIYETDFAGGNIRNLTHTKGYDAEASWSPDGRLIAFASNRRAYSEPLSEAETVLFSNDPSSMIDIYIMDADGSNVKRLTHTNSYDGGPFFSPDGKRIVWRRFSENGQEAEIFTMNTDGSDQKQITRLNKMSWAPFYHPSNQYIIFATNVHGHRNFELYIVDIDGKKEPVRVTDEEGFDGLPVFTPDGQYITWTSDRTPDHKGRLFHGKWDHKKALESLGLE | failed
MESIWRIATGQDPSREDYEGIEFWSNPERSGWLTKQGDYIKTWRRRWFVLKRGKLLWFKDQAAAGIRGSTPRGVISVGDCLTVKGAEDVVNKPFAFELSSGSYTMFFIADNEKEKEEWINSIGRSIVQHSRSVTDSEVLDYDHRR | failed
MILINKRAEKQDYQTILAIWEKSVIVTHDFLTAEDRQFYKEQIPLFLDNVELFLWFAGEEVIGFSGTSERELDMLFLDPVATGNGYGSQILGWLIENKRINLVDVNEQNENATRFYLKHGFVVSSRSDLDGFGKPYPILQLQLK | not failed
MDTLPHHLLDEILFRIDHRSLAMIQCTNRSLQSHISKTPNFASEYFSRIRSSLLYIATHGCPLICYHLYGDSRSPRTVETLTQCHILGYCSGLLLLFLNKNLCVANPLTKKFRFLNHSRSKFFPTDFTLRGGRQQVIGFAVDQTDRTTPSFKIVNIKEGAVHWLRNDGSIVAFNLKTEKARLIPIRFPKELCLKTLFTAVDNNLTLISATEEVIYVYAFHNILSDPKWVLVKQIRNGVLDEKRLYSWYVEAYDGKSLVLRETILKKDYYNKHLKQVLHGYDLRANKWEVIGSIPEWSPSGLDFYQFTPSPSSVIGLDDKEGEEILACDDKRIPSVNAIMRLIYGIS | failed
MFSIQQPLLVFSDLDGTLLDSHSYDWQPAAPWLTRLREANVPVILCSSKTSAEMLYLQKTLGLQGLPLIAENGAVIQLAEQWQEIDGFPRIISGISHGEISLVLNTLREKEHFKFTTFDDVDDATIAEWTGLSRSQAALTQLHEASVTLIWRDSDERMAQFTARLNELGLQFMQGARFWHVLDASAGKDQAANWIIATYQQLSGKRPTTLGLGDGPNDAPLLEVMDYAVIVKGLNREGVHLHDEDPARVWRTQREGPEGWREGLDHFFSAR | not failed
MFKTILLAYDGSEHARRAAEVAKAEAEAHGARLIVVHAYEPVPDYLGEPFFEEALRRRLERAEGVLEEARALTGVPKEDALLLEGVPAEAILQAARAEKADLIVMGTRGLGALGSLFLGSQSQRVVAEAPCPVLLVR | not failed
MFKVPKQSYTAEFKAAAVQRVKDGQGVGAVARELSVSEQTLRNWMKAEQAGKLGGAGAKVVTPEQMELSRLRAENKRLQMELEIAKKAAAYFAKDLL | failed
MNTMEKKTNIHAEDGKQDLLISREFDLPVELLFKAYTEPEFVEQWMGTTVLKLENKKHGSYQFETTDPKGNKHGFNGTIHEFVPDKKITRTFEMDNTPFPIQLEFLVFEKTTETTSKLNMHVIYKSVTDRDNILKLPFAQGINMAHNRIQELPTKLK | failed
